- Test system: HEK-293T
- Assay: Multiplex assay against HEK293T
- Type: toxicity, cell-based
- Condition info: human, 12 h, 1 µM, compound concentration 1 uM, replicate 1
Readout label: Population Normal (%)

>>> result_number("COc1cc2ncn(-c3cc(OCc4ccccc4C(F)(F)F)c(C(N)=O)s3)c2cc1OC [GW843682X]")
86
>>> result_number("CC(C)(C)NC[C@H](O)COc1nsnc1N1CCOCC1")
85
>>> result_number("CC(C)Oc1ccccc1C(=O)Nc1ccccc1C(=O)Nc1cccc(S(=O)(=O)C(F)(F)F)c1")
85
>>> result_number("Cl.O=C(O)c1cc(-c2ccc(C3CCNCC3)cc2)c2ccc(-c3ccc(C(F)(F)F)cc3)cc2c1")
80
>>> result_number("Cc1ccccc1C(c1ccccc1C)N1C2CCC1CC(O)(c1ccccc1)C2 (configuration not stated)")
82
>>> result_number("CCCSc1nc(N[C@@H]2C[C@H]2c2ccc(F)c(F)c2)c2nnn([C@@H]3C[C@H](OCCO)[C@@H](O)[C@H]3O)c2n1")
81
>>> result_number("CCc1nn(CCCN2CCN(c3cccc(Cl)c3)CC2)c(=O)n1CCOc1ccccc1.Cl [NEFAZODONE HYDROCHLORIDE]")
89
>>> result_number("C=CC(=O)Nc1cccc(Sc2nc(Nc3ccc(N4CCN(C)CC4)cc3)ncc2Cl)c1")
83
>>> result_number("CC(C)NC(=O)N1CC[C@H](NC2=Nc3cc(F)ccc3N(CC(F)F)c3ccc(Cl)cc32)C1")
81
>>> result_number("COC(=O)C1=C(C)NC(C)=C(C(=O)OCCCN2CCC(c3ccccc3)(c3ccccc3)CC2)[C@H]1c1cccc([N+](=O)[O-])c1")
90
>>> result_number("Cc1ccc2c(c1)c1c(n2CCc2ccc(C)nc2)CCN(C)C1 [LATREPIRDINE]")
85
>>> result_number("C=CC(=O)Nc1ccc2[nH]c(=O)n(C3CCN(Cc4ccc(-c5nc6cc[nH]c(=O)c6cc5-c5ccccc5)cc4)CC3)c2c1")
86

* * *

- System: U2OS
- Assay: Multiplex assay against U2OS
- Assay type: toxicity, cell-based
- Condition info: human, 24 h, 1 µM, compound concentration 1 uM, replicate 2
Readout label: Population Fragmented Nuclei (%)

>>> result_number("CC(C)CC(=O)Nc1[nH]nc2c1CN(C(=O)C1CCN(C)CC1)C2(C)C")
9
>>> result_number("CN1CCN(Cc2ccc(Nc3ncc(Cl)c(Nc4ccccc4S(=O)(=O)N(C)C)n3)cc2)CC1")
11
>>> result_number("Cc1nc(N2CC[C@H](O)C2)ncc1-c1cc(C(F)(F)F)cc2[nH]ncc12")
3
>>> result_number("Cc1cccc(CN2CCN(C(c3ccccc3)c3ccc(Cl)cc3)CC2)c1.Cl.Cl (stereo not drawn)")
18
>>> result_number("C=CC(=O)Nc1cccc(Oc2nc(Nc3ccc(N4CCN(C)CC4)cc3OC)ncc2Cl)c1")
35
>>> result_number("COc1cc2ncn(-c3cc(OCc4ccccc4C(F)(F)F)c(C(N)=O)s3)c2cc1OC [GW843682X]")
11
>>> result_number("C[C@]12CC[C@@H]3c4ccc(O)cc4CC[C@H]3[C@@H]1CC[C@@H]2O")
4
>>> result_number("C=CC(=O)Nc1cccc(Sc2nc(Nc3ccc(N4CCN(C)CC4)cc3)ncc2Cl)c1")
21
